Target: Frizzled1-GFP (Homo sapiens, UniProt Q9UP38)
Construct: expressed in transfected cells
Sequence (Q9UP38 70-647): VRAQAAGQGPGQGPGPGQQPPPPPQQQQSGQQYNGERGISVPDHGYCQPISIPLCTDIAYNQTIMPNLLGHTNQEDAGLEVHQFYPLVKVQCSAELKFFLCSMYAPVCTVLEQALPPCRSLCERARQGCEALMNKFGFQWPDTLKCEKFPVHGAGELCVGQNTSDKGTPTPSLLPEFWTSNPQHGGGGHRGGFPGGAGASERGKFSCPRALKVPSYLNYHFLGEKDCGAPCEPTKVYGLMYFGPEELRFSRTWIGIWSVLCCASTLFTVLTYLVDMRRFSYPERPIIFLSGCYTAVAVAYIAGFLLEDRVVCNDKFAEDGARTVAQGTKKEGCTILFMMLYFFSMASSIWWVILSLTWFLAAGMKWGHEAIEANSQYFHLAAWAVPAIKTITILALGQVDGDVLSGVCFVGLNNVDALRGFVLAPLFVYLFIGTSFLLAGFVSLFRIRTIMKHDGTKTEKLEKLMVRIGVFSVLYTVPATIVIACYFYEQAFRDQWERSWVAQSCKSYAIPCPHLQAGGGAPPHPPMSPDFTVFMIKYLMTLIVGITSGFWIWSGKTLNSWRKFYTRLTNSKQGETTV
Assay: Frizzled internalization assay (Fzd1-GFP)
Assay type: cell-based
Set-up: key: Punctate similar to control=0; trace amount of punctate greater than control=1; moderate=3; strong=5
Settings: 6 hours, 0-5 point scale
Observable: Fzd1-GFP internalization @12.5 μM
// return just the number, without any unit appended

Fill blank: measured Fzd1-GFP internalization @12.5 μM of the compound NC(=O)c1ccc(NC(=O)c2cc(Cl)ccc2O)cc1 is ____.
0

Further, for O=C(c1ccccc1)c1ccc(NC(=O)c2cc(Cl)ccc2O)cc1 ?
0

Could you do the same for O=C(Nc1ccc(F)cc1)c1cc(Cl)ccc1O , please?
0

Another compound: O=C(Nc1ccc(F)cc1F)c1cc(Cl)ccc1O
2

# repeat for O=C(Nc1ccc(F)c(Cl)c1)c1cc(Cl)ccc1O
5

Check O=C(Nc1ccc([N+](=O)[O-])cc1)c1cc(Cl)ccc1O too.
5

Input O=C(Nc1ccc(C(F)(F)F)cc1Cl)c1cc(Cl)ccc1O
5

Further, for O=C(NC(=O)c1cc(Cl)ccc1O)c1ccc(C(F)(F)F)cc1 ?
0

Next: O=C(NCc1ccc(C(F)(F)F)cc1)c1cc(Cl)ccc1O
0

Another: O=C(Nc1cccc(C(F)(F)F)c1)c1cc(Cl)ccc1O
5

O=C(Nc1cccc(Cl)c1)c1cc(Cl)ccc1O ?
5

O=S(=O)(Nc1ccc(C(F)(F)F)cc1Cl)c1cc(Cl)ccc1O , same question.
1

Check CCCCCCCC(=O)Oc1ccc(Cl)cc1C(=O)Nc1ccc([N+](=O)[O-])cc1Cl too.
5

Also check O=C(Nc1ccc(C(F)(F)F)cc1F)c1cc(Cl)ccc1O
5

Same question, O=C(Nc1ccc(C(F)(F)F)cc1)c1cc(Cl)ccc1O this time
5

Continue with O=C(Nc1ccc([N+](=O)[O-])cc1Cl)c1cc(Cl)ccc1O [A, reference compound]
5
